Quick list: GI50 per entry.
- System: CAKI-1
- Protocol Description: NCI tumour cell line growth inhibition, 48 h
The source made the active and inactive calls. Cut-off read from the data, not from the text of the source: active = GI50 up to about 1.1 µM and inactive = higher.

Would you please look over these solved cases?
INSERT INTO assay_data (compound, observed) VALUES
  ('Cc1cc(C)c(S(=O)(=O)N(CCCN)OCCCON(CCCN)S(=O)(=O)c2c(C)cc(C)cc2C)c(C)c1', '14.2 µM (inactive)'),
  ('Cc1cc(N(CC(C)Br)CC(C)Br)ccc1/N=N/c1ccccc1C(=O)O (stereo not given)', '2.49 µM (inactive)'),
  ('Nc1c2ccccc2nc2ccc3c(=O)cc(-c4ccccc4)oc3c12', '1.33 µM (inactive)'),
  ('COC(=O)NC1C(C)OC(OC2C/C=C(/C)C3C=CC4C(OC5CC(OC6CC(OC7CC(O)C(O)C(C)O7)C(OC7CC(O)C(OC)C(C)O7)C(C)O6)C(O)C(C)O5)C(C)CC(C)C4C3(C)C(=O)C3=C(O)C4(CC(C)C(CO)=CC4/C=C\2C)OC3=O)CC1(C)[N+](=O)[O-] (stereo not given)', '16 µM (inactive)');

Please give the measured GI50 for this compound: `N#CNC(=N)NC(=O)/C=C/C=C/c1ccc(Cl)cc1` > 100 µM (inactive)

====

- Tested on: RXF 393
- Protocol Description: NCI tumour cell line growth inhibition, 48 h
Active and inactive are the calls of the source. Rule as the data show it: active = GI50 up to about 1.1 µM and inactive = higher.
Attribute Measured: GI50

INSERT INTO assay_data (cpd_smiles, observed) VALUES
  ('CCOC(=O)C(=O)Nc1nc2c(OCC)cccc2s1', '> 100 µM (inactive)'),
  ('Oc1ccc(Cc2cc(Cl)cc(Cl)c2O)cc1Cl', '13.4 µM (inactive)'),
  ('O=C(NCCCN1CCN(CCCNC(=O)Nc2cccc3ccccc23)CC1)Nc1cccc2ccccc12', '11.1 µM (inactive)');

Tell me reported GI50 for `O=C1C(Sc2ccc3ccccc3c2)=C(Sc2ccc3ccccc3c2)C(=O)c2ccccc21` , tested with RXF 393. 14.8 µM (inactive)

Query `Nc1nc(N)c2ncn(-c3ccc(Br)cc3)c2n1` next 14.2 µM (inactive)

Cool, now `O=c1[nH]nc(Cc2ccccc2)n1/N=C\CC/C=N\n1c(Cc2ccccc2)n[nH]c1=O` 24.3 µM (inactive)

====

- System: KM12
- Protocol Description: NCI tumour cell line growth inhibition, 48 h
Calls of active or inactive are those of the source. Rule as the data show it: active = GI50 up to about 1.1 µM and inactive = higher.
Would you mind answering with one of these outcomes? 1 = active, 0 = inactive

Example cases with answers are listed next.
INSERT INTO assay_data (compound, class_name) VALUES
  ('COC(=O)C1SC(N(C)c2ccccc2)=NC12c1ccccc1Nc1ccccc12 (stereo unspecified)', 0),
  ('COC1=CC(=O)c2c(c(COC(C)=O)cn2C)C1=O', 1),
  ('CC1CCC(C(C)C)C(O[C@@H]2OC(=O)C[C@@H]2Sc2ccccc2)C1 (stereo partly specified)', 0),
  ('Sc1nnc(COc2ccc(Cl)cc2)o1', 0),
  ('Cc1nc2n(c1/C=C1/C(=O)Nc3ccccc31)CCS2', 0),
  ('O=C(NNC(=S)Nc1ccccc1)c1ccccc1Nc1ccccc1C(=O)NNC(=S)Nc1ccccc1', 0);

In the following, a different compound is considered.
Could you kindly confirm the outcome this assay logged for `CCCc1cc(=O)oc2c(C=O)c(O)cc(O)c12` ? 0
